- RUN_CONDITIONS: in methanol, 303.15 K
REPORTED_PROPERTY: solubility (mole fraction)
Numbers only.

Entry under test: `O=C(Cn1cnnn1)N[C@@H]1C(=O)N2C(C(=O)O)=C(CSc3nncs3)CS[C@H]12` . Its solubility (mole fraction) was 4.34e-05

---

- RUN_CONDITIONS: in methanol, 313.15 K
REPORTED_PROPERTY: solubility (mole fraction)
Give bare numbers.

Entry under test: `O=C(Cn1cnnn1)N[C@@H]1C(=O)N2C(C(=O)O)=C(CSc3nncs3)CS[C@H]12` . Its solubility (mole fraction) was 6.84e-05

---

- RUN_CONDITIONS: in isopropanol, 313.15 K
REPORTED_PROPERTY: solubility (mole fraction)
Answers are plain numbers.

Entry under test: `O=C(Cn1cnnn1)N[C@@H]1C(=O)N2C(C(=O)O)=C(CSc3nncs3)CS[C@H]12` . Its solubility (mole fraction) was 0.000152

---

- RUN_CONDITIONS: in acetonitrile, 278.15 K
REPORTED_PROPERTY: solubility (mole fraction)
One number for each entry.

Entry under test: `O=C(Cn1cnnn1)N[C@@H]1C(=O)N2C(C(=O)O)=C(CSc3nncs3)CS[C@H]12` . Its solubility (mole fraction) was 0.000124

---

- RUN_CONDITIONS: in acetone, 278.15 K
REPORTED_PROPERTY: solubility (mole fraction)
Answers are plain numbers.

Entry under test: `O=C(Cn1cnnn1)N[C@@H]1C(=O)N2C(C(=O)O)=C(CSc3nncs3)CS[C@H]12` . Its solubility (mole fraction) was 0.00153

---

- RUN_CONDITIONS: in isopropanol, 288.15 K
REPORTED_PROPERTY: solubility (mole fraction)
Answers are plain numbers.

Entry under test: `O=C(Cn1cnnn1)N[C@@H]1C(=O)N2C(C(=O)O)=C(CSc3nncs3)CS[C@H]12` . Its solubility (mole fraction) was 7.37e-05

---

- RUN_CONDITIONS: in acetonitrile, 303.15 K
REPORTED_PROPERTY: solubility (mole fraction)
Numbers only.

Entry under test: `O=C(Cn1cnnn1)N[C@@H]1C(=O)N2C(C(=O)O)=C(CSc3nncs3)CS[C@H]12` . Its solubility (mole fraction) was 0.000219

---

- RUN_CONDITIONS: in methanol, 308.15 K
REPORTED_PROPERTY: solubility (mole fraction)

Entry under test: `O=C(Cn1cnnn1)N[C@@H]1C(=O)N2C(C(=O)O)=C(CSc3nncs3)CS[C@H]12` . Its solubility (mole fraction) was 5.48e-05

---

- RUN_CONDITIONS: in ethyl acetate, 308.15 K
REPORTED_PROPERTY: solubility (mole fraction)

Entry under test: `O=C(Cn1cnnn1)N[C@@H]1C(=O)N2C(C(=O)O)=C(CSc3nncs3)CS[C@H]12` . Its solubility (mole fraction) was 0.000433

---

- RUN_CONDITIONS: in acetone, 298.15 K
REPORTED_PROPERTY: solubility (mole fraction)
Give bare numbers.

Entry under test: `O=C(Cn1cnnn1)N[C@@H]1C(=O)N2C(C(=O)O)=C(CSc3nncs3)CS[C@H]12` . Its solubility (mole fraction) was 0.0017

---

- RUN_CONDITIONS: in acetone, 293.15 K
REPORTED_PROPERTY: solubility (mole fraction)
Answers are plain numbers.

Entry under test: `O=C(Cn1cnnn1)N[C@@H]1C(=O)N2C(C(=O)O)=C(CSc3nncs3)CS[C@H]12` . Its solubility (mole fraction) was 0.00165
